The values you see were collected from PubChem BioAssay.

- EXPERIMENT_DESCRIPTION: HepG2 liver cancer cell viability effects, profiling panel, resazurin fluorescence, 24 h, PK04 Diversity Set (AID 1172); note: test concentration not given here
- DETAILS: higher = more signal
# maps each entry to its z-score

Some molecules with known z-score results, for comparison:
CHEM_SMILES: O=C1c2ccccc2[C@](Cc2ccccc2I)(C(=O)O)[C@H](c2ccc(CO)cc2)N1C1CCCCC1
z-score: -0.221

CHEM_SMILES: COCCOC(=O)N1C(=O)[C@@]2(c3cc(C#CCCO)ccc31)[C@H](C(=O)N1CCCCCCC1)[C@H]1C(=O)O[C@H](c3ccccc3)[C@H](c3ccccc3)N1[C@@H]2c1ccc(O)cc1
z-score: 0.801

CHEM_SMILES: COCCOC(=O)N1C(=O)[C@@]2(c3cc(C#CCNC(N)=O)ccc31)[C@H](c1ccc(OCCO)cc1)N1[C@H](c3ccccc3)[C@H](c3ccccc3)OC(=O)[C@H]1[C@@H]2C(=O)Nc1nc2ccccc2s1
z-score: -0.265

CHEM_SMILES: CC/C=C/C(=O)N(C[C@@H]1CCCO1)[C@@H]1CC(C(=O)NCCO)=C[C@H](Oc2c(I)cc(CO)cc2OC)[C@H]1O
z-score: 1.42

CHEM_SMILES: Cc1ccc(N2C(=O)c3ccccc3[C@@H](C(=O)NCC(F)(F)F)[C@@H]2c2ccc(CO)cc2)nc1
z-score: 0.129

get_value(item= CO[C@H]1COC(=O)[C@H](C)NC(=O)CC=C[C@@H](C)[C@H](NS(=O)(=O)c2ccc(C)cc2)COC(=O)[C@@H](OCc2ccccc2)C=C[C@@H]1C , readout=z-score) returns 0.618
